- SUBJECT OF TEST: TRPM5 (Homo sapiens)
- Construct: Human TRPM5 cDNA containing the complete ORF of the long splice version
- Sequence (Q9NZQ8 1-1165): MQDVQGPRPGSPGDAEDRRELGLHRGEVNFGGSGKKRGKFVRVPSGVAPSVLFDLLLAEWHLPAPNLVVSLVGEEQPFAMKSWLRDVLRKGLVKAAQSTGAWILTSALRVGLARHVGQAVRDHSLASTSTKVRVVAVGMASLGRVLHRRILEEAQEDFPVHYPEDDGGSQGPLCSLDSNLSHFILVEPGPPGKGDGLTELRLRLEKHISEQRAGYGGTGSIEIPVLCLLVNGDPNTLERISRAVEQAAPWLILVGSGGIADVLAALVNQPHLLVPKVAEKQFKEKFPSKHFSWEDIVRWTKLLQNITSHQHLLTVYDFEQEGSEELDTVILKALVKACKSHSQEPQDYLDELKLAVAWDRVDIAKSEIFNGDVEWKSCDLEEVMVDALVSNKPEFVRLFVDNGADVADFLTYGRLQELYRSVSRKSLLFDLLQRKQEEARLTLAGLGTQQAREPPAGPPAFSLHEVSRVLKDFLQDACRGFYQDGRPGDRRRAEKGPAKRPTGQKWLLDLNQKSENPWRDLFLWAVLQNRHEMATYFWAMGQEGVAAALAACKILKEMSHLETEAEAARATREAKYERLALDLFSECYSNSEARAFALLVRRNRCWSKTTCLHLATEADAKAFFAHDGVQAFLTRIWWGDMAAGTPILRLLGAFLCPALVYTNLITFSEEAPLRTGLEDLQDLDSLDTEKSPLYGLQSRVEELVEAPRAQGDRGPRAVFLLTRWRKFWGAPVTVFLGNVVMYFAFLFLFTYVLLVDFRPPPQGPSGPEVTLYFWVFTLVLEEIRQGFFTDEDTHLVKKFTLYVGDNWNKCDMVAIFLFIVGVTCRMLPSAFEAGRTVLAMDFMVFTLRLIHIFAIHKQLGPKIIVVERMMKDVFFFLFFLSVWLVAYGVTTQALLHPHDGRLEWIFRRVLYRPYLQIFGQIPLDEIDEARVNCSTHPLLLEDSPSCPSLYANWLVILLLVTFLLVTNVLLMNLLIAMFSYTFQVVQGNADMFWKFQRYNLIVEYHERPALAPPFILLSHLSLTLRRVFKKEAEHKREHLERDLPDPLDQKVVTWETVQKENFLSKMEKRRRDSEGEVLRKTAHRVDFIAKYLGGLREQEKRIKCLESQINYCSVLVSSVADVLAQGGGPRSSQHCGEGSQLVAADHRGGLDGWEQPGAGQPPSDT
- RUN DESCRIPTION: Whole-cell patch-clamp of TRPM5 currents in HEK-293 cells stably expressing TRPM5, [Ca2+]i buffered in pipette
- EXPERIMENTAL PARAMETERS: whole-cell, HEK-293 expressing TRPM5, n=5-20; read-out: IC50 of the inhibitory phase of TRPM5 currents
QUANTITY KIND: pIC50
Interpret pIC50 as the negative base-10 log of the concentration measured in mol/L.

Query: Supply measured pIC50 of [Ca+2] [[Ca^2+]i] in your reply.
Response: 5.96
